- System: CEM cells HIV-1 protection, formazan growth assay
- assay.protocol: NCI AIDS Antiviral Assay
- Description: The ability of compounds to protect human CEM cells from HIV-1 infection is measured as a screen for new compounds capable of inhibiting the HIV virus. Five concentrations of drug were tested on uninfected and infected cells and cell growth was measured using a soluble formazan assay. […] Compounds that provided at least 50% protection were retested. Compounds that provided at least 50% protection on retest were listed as moderately active. […]
Listed next: entries and their corresponding EC50.

compound: O=C1CN(C2CCCCC2)CC(=O)N2CCCCN12
experimental.system: CEM cells HIV-1 protection, formazan growth assay
EC50: > 200 µM

compound: O=C1N[C@@H]2CCC[C@@H]2[C@@H]1c1ccc(Cl)cc1
experimental.system: CEM cells HIV-1 protection, formazan growth assay
EC50: > 380 µM

compound: CC1=[N+]([O-])C(C)(C)N(O)C1(C)C
experimental.system: CEM cells HIV-1 protection, formazan growth assay
EC50: > 200 µM

compound: O=C(CCCn1ccnc1[N+](=O)[O-])NCCn1cncc1[N+](=O)[O-]
experimental.system: CEM cells HIV-1 protection, formazan growth assay
EC50: > 200 µM

compound: O=[N+]([O-])c1ccc(C2=NOC3COC4C=CC=CC4OCC23)cc1 (stereo unspecified)
experimental.system: CEM cells HIV-1 protection, formazan growth assay
EC50: > 30.2 µM

compound: COc1ccc(C(C#N)NCCCCCCNC(C#N)c2ccc(OC)cc2)cc1 (stereo unspecified)
experimental.system: CEM cells HIV-1 protection, formazan growth assay
EC50: > 200 µM

====

- System: CEM cells HIV-1 protection, formazan growth assay
- assay.protocol: NCI AIDS Antiviral Assay
- measurement.parameters: measured here: growth of uninfected CEM cells
pIC50: −log10 of the molar value.

compound: CCN(CC)CCC(=O)c1ccc(Cl)c(Cl)c1
bound.sign: <
pIC50: 2.30
//
compound: Cc1nn(C(=O)c2ccc(Cl)cc2)c2c1C(c1ccccc1O)SC(N)=N2 (stereo unspecified)
bound.sign: =
pIC50: 3.97
//
compound: Nc1ccc(C2SCC(=O)N2NS(=O)(=O)c2cccc(C(=O)O)c2)cc1 (stereo unspecified)
bound.sign: =
pIC50: 3.88
//
compound: CC(=O)C(=Cc1cccc([N+](=O)[O-])c1)C(C)=O
bound.sign: =
pIC50: 4.69
//
compound: NC(=O)c1ccc2cc(O)c(O)cc2c1
bound.sign: =
pIC50: 4.46
//
compound: COCO[C@@H]1C[C@H]2C(=O)Nc3ccccc3C(=O)N2C1
bound.sign: =
pIC50: 4.42
//
compound: Oc1cccc2c1NC1=C(CCC/C1=C\c1ccccc1)C2
bound.sign: <
pIC50: 5.03
//
compound: CC(C)C1=C(Cc2ccccc2)C(=O)O/C1=C\c1cc(Cl)c(O)c(Cl)c1
bound.sign: =
pIC50: 4.49
//
compound: CC(C)CNC(=S)N/N=C\c1ccncc1
bound.sign: =
pIC50: 3.98
//
compound: O=[N+]([O-])/C(C(Cl)=C(Cl)Cl)=C(/Nc1ccccc1)Sc1ccccc1
bound.sign: =
pIC50: 4.63
//
compound: CC(=O)Nc1ccc(S(=O)(=O)[N-]C2C(=O)c3ccccc3C(=O)C2[n+]2ccccc2)cc1 (stereo unspecified)
bound.sign: =
pIC50: 4.43

====

Reported IC50 values for the following molecules.
- Test system: CEM cells HIV-1 protection, formazan growth assay
- assay.protocol: NCI AIDS Antiviral Assay
- measurement.parameters: measured here: growth of uninfected CEM cells
Where a SMILES comes first, the peptide text is derived from it. [ ]: non-standard residue; d: D form. The star is where a group is joined. Phe(4-NO2) = N[CH](Cc1ccc([N+](=O)[O-])cc1)C(=O)O; Boc = CC(C)(C)OC(=O)*

molecule: CCOC(=O)CCC(NC(=O)C(Cc1ccc([N+](=O)[O-])cc1)NC(=O)OC(C)(C)C)C(=O)NC(CCC(=O)OCC)C(=O)OCC (configuration not stated) (Boc-[Phe(4-NO2)]-Glu(OEt)-Glu(OEt)-OEt; configuration not given here)
unit.text: µM
bound.sign: =
IC50: 9.77
//
molecule: Cc1nnc(N)nc1/C=C/c1c(O)ccc2ccccc12
unit.text: µM
bound.sign: =
IC50: 26.3
//
molecule: O=C1c2n[nH]nc2C(=O)c2n[nH]nc21
unit.text: µM
bound.sign: >
IC50: 200
//
molecule: CC1(CO)OC(n2cnc3cncnc32)CC1O (configuration not stated)
unit.text: µM
bound.sign: >
IC50: 200
//
molecule: COc1ccc(CC(=O)c2ccc(O)cc2O)cc1
unit.text: µM
bound.sign: =
IC50: 81.3
//
molecule: Cc1cn(C2C=CCCC2)c(=O)[nH]c1=O (configuration not stated)
unit.text: µM
bound.sign: >
IC50: 871
//
molecule: NC(F)(Cc1ccccc1)C(=O)O (configuration not stated)
unit.text: µM
bound.sign: >
IC50: 200
//
molecule: c1coc(-c2cc(-c3cc(-c4ccco4)on3)no2)c1
unit.text: µM
bound.sign: =
IC50: 589
//
molecule: O=C(Nc1ccccc1)C(=O)C(C(=O)c1ccccc1)C(c1ccccc1)c1ccccc1 (configuration not stated)
unit.text: µM
bound.sign: =
IC50: 37.2
//
molecule: CCCCN(CCCC)CCCNc1c2c(nc3cc(Cl)ccc13)CCCC2
unit.text: µM
bound.sign: =
IC50: 38.9
//
molecule: COC(=O)[C@@H]1CO[C@H](C(C)(C)C)N1C(=O)N1C=CC(=O)C[C@H]1C
unit.text: µM
bound.sign: >
IC50: 200
//
molecule: CNC(=O)N1CN(c2ccccc2)C2(CCN(CCCC(=O)c3ccc(F)cc3)CC2)C1=O
unit.text: µM
bound.sign: =
IC50: 10.5
//
molecule: CC(=O)C(=O)N1Cc2cc3ccccc3nc2C1
unit.text: µM
bound.sign: =
IC50: 257
//
molecule: COc1c2c(cc3ccc(=O)oc13)CCO2
unit.text: µM
bound.sign: >
IC50: 204
//
molecule: Cc1cc[n+]2c(c1)-c1cc(C)cc[n+]1CC2
unit.text: µM
bound.sign: =
IC50: 162
//
molecule: Nc1nc(N)c(C2=CCN(Cc3ccccc3)CC2)c(=O)[nH]1
unit.text: µM
bound.sign: >
IC50: 200
//
molecule: CCn1cc(C(=O)O)c(=O)c2cc3c(cc21)OCO3
unit.text: µM
bound.sign: >
IC50: 38
//
molecule: COC(=O)c1ccc(NCc2c(O)ccc(O)c2Br)cc1Cl
unit.text: µM
bound.sign: =
IC50: 6.46
//
molecule: COC1/C=C/OC2(C)Oc3c(C)c(O)c4c(O)c(c(/C=N/N5CC(C)N(C(=O)c6ccccc6)C(C)C5)c(O)c4c3C2=O)NC(=O)C(C)=C/C=C/C(C)C(O)C(C)C(O)C(C)C(OC(C)=O)C1C (configuration not stated)
unit.text: µM
bound.sign: =
IC50: 6.46
//
molecule: CNC(=S)NNC(=O)c1c(C)nc2sccn12
unit.text: µM
bound.sign: =
IC50: 575
//
molecule: Cc1c(Cc2ccc(Cl)cc2)c(=O)[nH]c(=O)n1C
unit.text: µM
bound.sign: >
IC50: 97.7
//
molecule: O=C(/C=C/c1ccc(O)c(O)c1)NC(CO)C(=O)O (configuration not stated)
unit.text: µM
bound.sign: =
IC50: 28.8

Origin of the recorded values: PubChem BioAssay AID179
